# Tested on: ACVR1
# CONDITION SUMMARY: concentration: 1 μM, replicates: in singlicate; n = 1;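 further: KINOMEscan kinase panel screen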
Record form. Attribute: %Inh. Fill in for each entry.
Give your result in % as a bare value.

Request: For the compound NCCC(NC(=O)c1cc(Br)c(-c2ccnc3[nH]ccc23)s1)c1ccccc1.O=C(O)C(F)(F)F.O=C(O)C(F)(F)F (stereo not drawn) , give its measured %Inh value.
Response: 15

Request: Complete the entry with %Inh for `CN(C)c1ncnc2nc[nH]c12`
Response: 1

Request: Report %Inh, nothing else, for this compound: `COC(=O)Nc1nc2cc(Oc3ccc(NC(=O)Nc4cccc(SC)c4)cc3)ccc2[nH]1.Cl`
Response: 0

Request: Write down %Inh measured for item `Cc1ccc(NC(=O)c2ccnc(N3CCCCC3)c2)cc1-c1ccc(C(=O)NCC2CC2)cc1`
Response: 0

Request: Report measured %Inh; entry is `Cc1ccc(O)cc1Nc1ccnc2ccc(C(C)(C)C)cc12`
Response: 24

Request: Please give the documented %Inh of `O=C(Nc1c(F)cccc1F)c1cc(C(=O)c2ccccc2F)c[nH]1`
Response: 0

Request: Determine its reported %Inh: `COc1ccc(C2=C(Nc3cccc(O)c3)C(=O)NC2=O)cc1`
Response: 0

Request: Answer with reported %Inh of `COc1cccc2c(-c3ccncc3)c(-c3ccc(F)cc3)nn12`
Response: 31

Request: Annotate the compound `CCNc1nccc(-c2c(-c3ccc(F)cc3)ncn2C2CCN(C)CC2)n1` with its measured %Inh.
Response: 0

Request: Please report the measured %Inh for `O=C(Nc1n[nH]c2nc(-c3ccccc3O)ccc12)C1CC1`
Response: 0

Request: // Input: `Cc1cc(-c2ccnc(Nc3cccc(C#N)c3)n2)cc(C)c1O` . Output its %Inh only.
Response: 96.5

Request: Tell me its %Inh given `CN(c1ccc(F)c(NC(=O)c2cccc(OC(C)(C)C#N)c2Cl)c1)c1ccc2nc(NC(=O)C3CC3)sc2n1` as the entry.
Response: 0

Request: Given `COc1cccc(-c2nc(-c3ccccc3)[nH]c2-c2ccncc2)c1` , respond with its %Inh.
Response: 24

Request: Please report %Inh for the following compound: Cl.Cl.NC(CNC(=O)c1cc(Br)c(-c2ccnc3[nH]ccc23)s1)c1ccccc1 (stereo not drawn)
Response: 38

Request: Give the reported value of %Inh for this record: `CSc1ccc(NC2=C(c3ccc(Cl)cc3)C(=O)NC2=O)cc1`
Response: 0

Request: Output measured %Inh for this item: `COc1cccc(NC(=O)NCCNc2ccnc(Nc3ccc(F)cc3)n2)c1`
Response: 0

Request: Give the reported value of %Inh for this record: `O=C(O)C(F)(F)F.O=c1[nH]ccc2nc(N[C@@H]3CCNC3)nc(Nc3cc(Cl)cc(Cl)c3)c12`
Response: 0

Request: Give %Inh for `Nc1ncnc2scc(-c3ccc(NC(=O)Cc4cc(F)ccc4F)cc3)c12.O=C(O)C(F)(F)F`
Response: 0

====

# Tested on: TLK1
# CONDITION SUMMARY: concentration: 1 μM, replicates: in singlicate; n = 1
Task for the reader: assign each of the following compounds its reported %Inh.
Unit % implied. Number only.

Request: Tell me %Inh reported for `Cl.N#CCc1ccc(Nc2nccc(Nc3ccc(Oc4ccccc4)cc3)n2)cc1`
Response: 0

Request: // Input: `COc1cc(Nc2ccnc3cc(-c4ccncc4)ccc23)cc(OC)c1OC.Cl` . Output its %Inh only.
Response: 0

Request: Specify reported %Inh for the compound shown: `Cl.O=C(Nc1ccc(Oc2ccc3[nH]c(NC(=O)c4ccco4)nc3c2)cc1)Nc1cc(C(F)(F)F)ccc1F`
Response: 0

Request: Retrieve %Inh measured for `O=C(O)C(F)(F)F.O=c1[nH]ccc2nc(N[C@@H]3CCNC3)nc(Nc3cc(Cl)cc(Cl)c3)c12` and print it.
Response: 62

Request: Give recorded %Inh. `Cc1cc(-c2c(-c3ccc(F)cc3)ncn2CCCN2CCOCC2)nc(N)n1`
Response: 0

Request: State its %Inh for this compound: `COc1cccc(C2=C(Nc3cccc(O)c3)C(=O)NC2=O)c1`
Response: 29

Request: Tell me its %Inh given `COc1cccc(-c2nc(-c3ccccc3)[nH]c2-c2ccncc2)c1` as the entry.
Response: 0

Request: Output measured %Inh for this item: `N#CC1(c2cccc(C(=O)Nc3cccc(Oc4ccc5nc(NC(=O)C6CC6)sc5n4)c3)c2)CC1`
Response: 0

Request: Find the measured %Inh of `Nc1cccc(-c2ccc3c(N)n[nH]c3c2)c1` and report it.
Response: 3

Request: Fill in %Inh for record `Cc1nn2c(=O)cc(N3CCO[C@H](C)C3)nc2n1Cc1cccc(Cl)c1Cl`
Response: 0

Request: Respond only with %Inh recorded for `Nc1ncc(-c2cn[nH]c2)c2scc(-c3ccc4c(c3)CCN4C(=O)Cc3ccccc3)c12`
Response: 0

====

# Tested on: FRK
# CONDITION SUMMARY: concentration: 1 μM, replicates: in singlicate; n = 1
Mark True only when %Inh stays strictly below 20%. Values equal to the cut-off are False.

Request: Does the reported %Inh of `COc1ccc(NC(=O)c2ccoc2)cc1-c1ccc(C(=O)NCC2CC2)cc1` stay below 20%?
Response: True

Request: %Inh under 20%? Item: `N#Cc1cnc2cc(-c3cnc(CNCCN4CCOCC4)s3)ccc2c1Nc1ccc(Oc2ccccc2)cc1`
Response: True

Request: Lab note: %Inh threshold 20%. Does this compound come in strictly under it? NCCC(NC(=O)c1cc(Br)c(-c2ccnc3[nH]ccc23)s1)c1ccccc1.O=C(O)C(F)(F)F.O=C(O)C(F)(F)F (centres unmarked)
Response: False

Request: Confirm or reject: %Inh of `c1ccc(Oc2ccc(Nc3ccnc4cc(-c5ccc(CN6CCCCC6)o5)ccc34)cc2)nc1` lies strictly below 20%
Response: False

Request: Would you kindly verify if %Inh of `Cc1ccc(NC(=O)c2cccc(N3CCCCC3)c2)cc1-c1ccc(C(=O)NCC2CC2)cc1` is strictly less than 20%?
Response: False

Request: In plain terms, does `Cc1ccc(C)c(NC(=O)Nc2ccc(C)c(-c3ccc(C(=O)Nc4ccncc4)cc3)c2)c1` come in under 20% for %Inh?
Response: False

Request: A record lists `CCn1c(-c2nonc2N)nc2c(-c3ccccc3)ncc(OCCCN)c21.O=C(O)C(F)(F)F.O=C(O)C(F)(F)F` . Is its %Inh below 20%?
Response: True

Request: Report whether reported %Inh is lower than 20% (strictly) for `CS(=O)(=O)c1cccc(CNc2nc(Nc3ccc4c(c3)CCC(=O)N4)ncc2C(F)(F)F)c1`
Response: True

====

# Tested on: RIOK1
# CONDITION SUMMARY: concentration: 1 μM, replicates: in singlicate; n = 1
# binarize %Inh: threshold 9% inclusive, high side TRUE, low side FALSE

Request: Does %Inh meet or surpass 9% for Cc1ccc(NC(=O)c2cccc(N3CCCCC3)c2)cc1-c1ccc(C(=O)NCC2CC2)cc1 [GSK1917008] ?
Response: TRUE

Request: Could you please find out whether CN(c1ccc(NC(=O)Nc2cccc(Cl)c2)cc1)c1ccnc(N)n1.Cl [GW830707] has %Inh that meets 9% or exceeds it?
Response: FALSE

Request: Could you tell me if the measured %Inh of CC(C)c1nc(-c2ccc(F)c(NS(=O)(=O)c3c(F)cccc3F)c2)c(-c2ccnc(Nc3ccc(N4CCOCC4)nc3)n2)s1 [GSK1804250] reaches 9% or more?
Response: TRUE

Request: Decide: is the reported value of %Inh for CN(c1ccc2c(c1)nc(NCc1ccccc1)n2C)c1ccnc(Nc2ccc(CS(C)(=O)=O)cc2)n1.Cl [GW811603] equal to or greater than 9%?
Response: TRUE

Request: Given the entry Cc1nn2c(=O)cc(N3CCO[C@H](C)C3)nc2n1Cc1cccc(Cl)c1Cl [GSK2373693] , answer whether its %Inh meets or surpasses 9%.
Response: TRUE

Request: Is reported %Inh greater than or equal to 9% here: Cc1cccc(Nc2nc(N[C@H]3CCCC[C@H]3N)ncc2C(N)=O)c1.Cl [GSK986310]
Response: TRUE

Request: Hello, I need to know if O=C1NC(=O)C(c2ccccc2Cl)=C1Nc1cccc(Cl)c1 [SB-342409] has measured %Inh not below 9%. Thanks!
Response: FALSE

====

Task for the reader: assign each of the following compounds its reported %Inh.
# System: PLK3
# CONDITION SUMMARY: concentration: 1 μM, replicates: in singlicate; n = 1
Answer in %, number only, no unit symbol.

Request: Specify measured %Inh for `CN1CCN(Cc2ccc(NC(=O)Nc3ccc(N(C)c4ccnc(Nc5ccc(CS(C)(=O)=O)cc5)n4)cc3)cc2)CC1.Cl` .
Response: 3

Request: For the compound `Nc1ncc(-c2ccc3nccc(-c4ccncc4)c3c2)cc1S(=O)(=O)N1CCCCC1` , give its measured %Inh value.
Response: 27

Request: Provide measured %Inh value, entry: `CC(C)(C)c1ccc(C(=O)Nc2cn3cc(-n4ccnc4)ccc3n2)cc1`
Response: 10

Request: Please report the measured %Inh for `Cl.N#CCc1ccc(Nc2nccc(Nc3ccc(Oc4ccccc4)cc3)n2)cc1`
Response: 0
